Reference source for all entries: ChEMBL document CHEMBL3271985

Measured logP, listed per entry.
Experiment: Octanol-water partition coefficient, log P of the compound
No unit in the answer, please; the number alone is enough.

Look over these answered cases.
- Cc1cccc(C)c1: 3.2
- Cc1ccccc1C: 3.12
- c1ccc2c(c1)CCC2: 3.33

Can you look up the measured logP of "CC(C)c1ccccc1" for me? 3.66

Now the same for "CC(C)(C)c1ccccc1" 4.11

What about this compound? "c1cc2ccc1CCc1ccc(cc1)CC2" 2.33

How about "c1ccc(C2CCCCC2)cc1" ? 4.64

Another compound to check: "c1ccc2c(c1)CCCC2" 3.52

Repeat for the following compound: "Cc1ccc(C)cc1" 3.15

One more compound: "c1ccc(C23CC4CC(CC(C4)C2)C3)cc1" 5.43

// query: "c1ccc(C2CCCC2)cc1" 4.27
